system: UniProtKB P29274
Sequence (P29274 whole entry): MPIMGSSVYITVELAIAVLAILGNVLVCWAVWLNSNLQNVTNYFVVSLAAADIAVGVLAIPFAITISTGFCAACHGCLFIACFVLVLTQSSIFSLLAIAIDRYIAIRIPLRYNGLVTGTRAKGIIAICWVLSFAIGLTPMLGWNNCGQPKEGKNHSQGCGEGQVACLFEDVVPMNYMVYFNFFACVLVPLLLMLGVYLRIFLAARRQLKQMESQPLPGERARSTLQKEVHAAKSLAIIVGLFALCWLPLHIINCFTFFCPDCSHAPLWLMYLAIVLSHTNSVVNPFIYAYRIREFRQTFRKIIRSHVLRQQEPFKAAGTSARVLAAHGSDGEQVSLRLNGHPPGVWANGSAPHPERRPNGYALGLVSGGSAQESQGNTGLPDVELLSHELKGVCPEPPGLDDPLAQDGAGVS
measurement notes: Functional assay (luciferase reporter), inhibition of A2A adenosine receptor
Assay type: cell-based
Parameters: expressed in transfected cells; host or cells: CHO-DUKX-CRE-A2A-19 (CHO-DUKX, vector pCineo)
settings: Imax in % of the corresponding antagonist
parameter: A2A AR Imax (%)
One number for each entry, in %.

* C#CCn1c(=O)c2c(nc(C#Cc3ccc(OC)c(OC)c3)n2C)n(C)c1=O [drawing 619] | 95
* C#CCn1c(=O)c2c(nc(C#Cc3cccc(OC)c3)n2CC#C)n(C)c1=O [drawing 621] | 86

Give one value of A2A AR Imax per listed compound.
1. C#CCn1c(=O)c2c(nc(C#Cc3cccc(C)c3)n2C)n(CCCO)c1=O [drawing 623]
2. C#CCn1c(=O)c2c(nc(C#Cc3ccc(OC)c(OC)c3)n2C)n(CCCO)c1=O [drawing 622]
3. C#CCn1c(=O)c2c(nc(C#Cc3ccc(OC)c(OC)c3)n2C)n(CC)c1=O [drawing 618]
4. C#CCn1c(=O)c2c(nc(C#Cc3cccc(OC)c3)n2C)n(C)c1=O [drawing 617]
5. C#CCn1c(=O)c2c(nc(C#Cc3cccc(OC)c3)n2C)n(CCCO)c1=O [drawing 620]

Data returned:
1. 109
2. 117
3. 97
4. 90
5. 117
